target: Gamma-aminobutyric acid receptor subunit alpha-6/beta-3/gamma-2 (Rattus norvegicus) (UniProt P18508+P30191+P63079); assay: Positive allosteric modulation of rat recombinant GABAA alpha6beta3alpha6-gamma2beta3 receptor expressed in Xenopus laevis oocytes assessed as maximal efficacy at -80 mV holding potential at 1 nM in presence of GABA EC1 to 1.5 by two-electrode voltage-clamp assay; type: cell-based; details: Oocyte
EXPERIMENTAL_ENDPOINT: Efficacy (%)
Numbers only, in %.

{"SMI": "COc1ccc(-n2nc3c4ccc(C)cc4[nH]cc-3c2=O)cc1", "MEASUREMENT_UNITS": "%", "TEST_VALUE": 25}
{"SMI": "COc1ccc(-n2nc3c4ccc(OC)cc4[nH]cc-3c2=O)cc1", "MEASUREMENT_UNITS": "%", "TEST_VALUE": 31}
{"SMI": "COc1ccc(-n2nc3c4ccc(C(F)(F)F)cc4[nH]cc-3c2=O)cc1", "MEASUREMENT_UNITS": "%", "TEST_VALUE": 13}
{"SMI": "C#Cc1ccc2c3nn(-c4ccc(OC)cc4)c(=O)c-3c[nH]c2c1", "MEASUREMENT_UNITS": "%", "TEST_VALUE": 9}
{"SMI": "COc1ccc(-n2nc3c4ccc(C(C)=O)cc4[nH]cc-3c2=O)cc1", "MEASUREMENT_UNITS": "%", "TEST_VALUE": 9}
{"SMI": "CCc1ccc2c3nn(-c4ccc(OC)cc4)c(=O)c-3c[nH]c2c1", "MEASUREMENT_UNITS": "%", "TEST_VALUE": 3}

State recorded Efficacy for all listed compounds.
1. COc1ccc(-n2nc3c4ccc(F)cc4[nH]cc-3c2=O)cc1
2. COc1ccc(-n2nc3c4ccc(Cl)cc4[nH]cc-3c2=O)cc1
3. COc1ccc(-n2nc3c4ccc(Br)cc4[nH]cc-3c2=O)cc1

Reply text:
1: 6; 2: 6; 3: 5
